Listed here: items and their measured MIC.
# Tested on: Klebsiella pneumoniae
# Measurement description: Antibacterial activity against Klebsiella pneumoniae 700603 by microdilution assay
# Assay type: functional
Your answer is read as µg/mL, so omit the unit and give the number.

Below, each entry is followed by its recorded MIC result.
Compound	Data value
NC[C@H]1O[C@H](O[C@H]2[C@H](O)[C@@H](OCCCc3ccc4ccccc4c3)[C@H](N)C[C@@H]2N)[C@H](N)[C@@H](OCCCc2ccc3ccccc3c2)[C@@H]1O	32
NCC[C@H](O)C(=O)N[C@@H]1C[C@H](N)[C@@H](O[C@H]2O[C@H](CN)[C@@H](O)[C@H](O)[C@H]2O)[C@H](O)[C@H]1O[C@H]1O[C@H](CO)[C@@H](O)[C@H](N)[C@H]1O [AMIKACIN]	1

Could you now consider this next compound?
Task item: Provide MIC value for the following compound: CCCCCCCCCO[C@@H]1[C@@H](N)[C@@H](O[C@H]2[C@H](O)[C@@H](OCCCCCCCCC)[C@H](N)C[C@@H]2N)O[C@H](CN)[C@H]1O
Reply: 4
